Test system: LXRb homodimer (NR concentration 270 nM)
Test: PBM binding z-score (relative to random genomic background probes); higher = stronger binding; sequences stand for … in GC…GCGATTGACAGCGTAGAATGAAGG
Answer each item with its documented PBM binding z-score.
Numbers only.

construct sequence | target or test system | measured endpoint | readout value
CCTTACGGGTGAAGGTTATAGCACGGGTGGTACG | LXRb homodimer (NR concentration 270 nM) | PBM binding z-score | -0.349

Hi! Can you tell me PBM binding z-score for each of these sequences?
1. TCTATTAGTTGAATAGGGCAACCGAAACAGCGGA
2. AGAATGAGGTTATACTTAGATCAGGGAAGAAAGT
3. GCTTGGAGGACAAGGTCAGAGCTTTGTCCGTAGA
4. GGAACGCGGGCATTCGAGTTGATAGCATGGCGAT
5. CATACAGGATCAGCTAGGCCAGAGTAGGGACGGC
6. AGAACGCGGGCAATGAGTTGATAGCACGGGTGGC
7. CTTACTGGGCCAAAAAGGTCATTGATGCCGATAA

[0.0451, 0.388, -0.782, -1.3, -0.0365, -1.21, 0.76]

Hi! Can you tell me PBM binding z-score for each of these sequences?
1. TCATATGGGTAAAGGTGAAAGTCGAACGATATGA
2. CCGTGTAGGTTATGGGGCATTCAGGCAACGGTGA

-0.607
0.31

All figures here come from the supplement of paper PMC6555819.
